Provide the reported growth of each item.
Test system: OVCAR-8 ovarian
Test: NCI-60 one-dose screen, 48 h (100 = growth as untreated, 0 = no growth, -100 = all killed)
Conditions: 10 µM unless noted
This is part of a sample that, as a whole, favours compounds with a hit. Of some 83,000 tested, about 20% had one in any assay.
Give just the numeric value; % need not be written.

The reported growth of the compound CN1CCN(CCOc2ccc(-c3cnc4c(-c5ccccc5F)cnn4c3)cc2)CC1 was 40.7

The reported growth of the compound COC(=O)CNc1nc(N(C)O)nc(N(C)O)n1 was 34.3

The reported growth of the compound C=C(C)[C@@H]1CC[C@]2(C(=O)N3CCCNCC3)CC[C@]3(C)[C@H](CC[C@@H]4[C@@]5(C)CCC(=O)C(C)(C)[C@@H]5CC[C@]43C)[C@@H]12 was 95.6

The reported growth of the compound Oc1ccccc1/C=N\NC(=S)Nc1ccc(F)cc1 was 21.9

The reported growth of the compound C[Si](C)(C)Cc1ccccc1 was 107

The reported growth of the compound COc1cccc(-c2nn(-c3ccccc3)cc2-c2ccnc(NCCCNS(=O)(=O)c3cccc(F)c3)c2)c1 was 12.1

The reported growth of the compound CCN(CC)CCCCCNc1cc(OC(=O)c2ccccc2)cc2cccnc12 was 121

The reported growth of the compound NC1=NN(c2ccccc2)C(=O)/C1=C/c1ccc(Cl)cc1 was 99

The reported growth of the compound O=C1C(Cl)=C(Nc2ccc(S(=O)(=O)c3ccc(NC4=C(Cl)C(=O)c5ccccc5C4=O)cc3)cc2)C(=O)c2ccccc21 was -61.8

The reported growth of the compound O=[N+]([O-])c1ccc(N/N=C(\C(=N/Nc2ccc([N+](=O)[O-])cc2[N+](=O)[O-])c2ccccc2)c2ccccc2)c([N+](=O)[O-])c1 was 87.6

The reported growth of the compound CC1(c2ccccc2)OC1C(=O)O (stereo not given) was 107

The reported growth of the compound O=C(O)c1cccc2c1Cc1cc([N+](=O)[O-])ccc1-2 was 108

The reported growth of the compound Cn1cc(-c2nc(-c3c[nH]c4ncccc34)cs2)c2cc(Cl)ccc21 was 63.2

The reported growth of the compound COC(=O)C(Cc1ccccc1)n1cc(COc2nc(Cl)nc(Nc3ccc(Cl)cc3)n2)nn1 (stereo not given) was 96.1

The reported growth of the compound CC1=CC(=O)N(c2cccc3c(N4C(=O)C=C(C)C4=O)cccc23)C1=O was 80.3

The reported growth of the compound Cc1ccc2c(c1)c1nc3cc(C)c(C)cc3nc1n2CCN(C)C was 18.4

The reported growth of the compound Cn1c2ccccc2c2c3c(c4c5cccnc5[nH]c4c21)C(=O)N(O)C3=O was 45.5

The reported growth of the compound O=C(/C=C/c1cccc(O)c1)c1ccccc1O was 92.9

The reported growth of the compound COc1cccc(-c2nn(-c3ccccc3)cc2-c2ccnc(NCCNS(=O)(=O)c3ccccc3)c2)c1 was 27.7

The reported growth of the compound OCC1OC(n2cnc3c(Cl)ncnc32)CC1O (stereo not given) was 104

---

Provide the reported growth of each item.
System: HT29 colon
Test: NCI-60 one-dose screen, 48 h (100 = growth as untreated, 0 = no growth, -100 = all killed)
Details: 10 µM unless noted
About 83,000 compounds went through this panel and 20% of them were active in at least one assay; those are over-represented in the sample as a whole.
Give just the numeric value; % need not be written.

The reported growth of the compound Cc1cc(C)nc(NC(N)=NCCc2ccccc2)n1 was 13.5

The reported growth of the compound O=C1C=C(C(O)c2ccc(O)cc2)C(=O)c2ccccc21 (stereo unspecified) was 115

The reported growth of the compound COc1cc2nc(Cl)nc(Nc3cccc(C(=O)/C=C/c4ccccc4)c3)c2cc1OC was 4.17

The reported growth of the compound Cc1ccc(-c2nc([P+](c3ccccc3)(c3ccccc3)c3ccccc3)c(N3CCOCC3)o2)cc1 was -0.839

The reported growth of the compound Cc1cc(Cl)nc(N(CCCNc2ccnc3cc(Cl)ccc23)Cc2ccco2)n1 was 8.64

The reported growth of the compound CN1CCN(c2nc(-c3csc(-c4cccs4)n3)cc3ccccc23)CC1 was -27.3
